# TESTED_SYSTEM: T1, recombinant human cardiac troponin T (human, UniProt P45379 2-298)
# T1 construct: In the ECL assay the cTnT came from the Troponin T hs CalSet calibrator; also called cTnT; TnT
# PROTOCOL_NOTES: SPR (Biacore T200, 37 C), Fab captured, cTnT analyte
READOUT: MR (Molar Ratio)

Observe how each entry below is paired with its result.
{"columns": ["BINDER", "MR (Molar Ratio)"],
 "data": [
  ["anti-cTnT Fab mutant 9 (Y34I) (Fab, V domains shown, also called combination 9) VH: EVQLQQSGPELVKPGASVKMSCKASGYTFTDYIMKWVKQSHGKSLEWIGDINPNNGETFYNQKFKDKATLTVDKSSSTAYMQLNSLTSEDSAVYYCATRVFDYWGQGTTLTVSS VL: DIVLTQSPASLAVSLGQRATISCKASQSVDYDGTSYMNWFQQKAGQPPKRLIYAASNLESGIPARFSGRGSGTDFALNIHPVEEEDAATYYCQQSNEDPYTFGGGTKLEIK", 0.7],
  ["anti-cTnT Fab mutant 5 (Y34F, F60W, V101Y + Y104F) (Fab, V domains shown, also called combination 5) VH: EVQLQQSGPELVKPGASVKMSCKASGYTFTDYFMKWVKQSHGKSLEWIGDINPNNGETWYNQKFKDKATLTVDKSSSTAYMQLNSLTSEDSAVYYCATRYFDFWGQGTTLTVSS VL: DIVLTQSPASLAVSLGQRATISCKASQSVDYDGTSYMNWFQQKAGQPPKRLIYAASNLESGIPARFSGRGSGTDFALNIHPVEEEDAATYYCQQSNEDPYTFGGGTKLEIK", 0.7]
]}

Consider the binder shown here: anti-cTnT Fab mutant 22 (F60W, Y104F) (Fab, V domains shown, also called combination 22) VH: EVQLQQSGPELVKPGASVKMSCKASGYTFTDYYMKWVKQSHGKSLEWIGDINPNNGETWYNQKFKDKATLTVDKSSSTAYMQLNSLTSEDSAVYYCATRVFDFWGQGTTLTVSS VL: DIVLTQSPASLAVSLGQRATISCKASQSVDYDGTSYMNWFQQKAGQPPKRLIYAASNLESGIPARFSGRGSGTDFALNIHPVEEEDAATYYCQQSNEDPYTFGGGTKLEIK What is its recorded MR (Molar Ratio)?
0.7

Where do these numbers come from? They come from patent US20210009668A1.
